B1: DLC1 (parent)
chain: NDDSADYQHFLQDCVDGLFKEVKE

variants of: B1; experiment: protein stability index of a GFP-peptide fusion (GPS, HEK-293T) (PSI 1-6); higher = more stable; details: c terminus: a fixed tail appended;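 further: lentivirally expressed fusions sorted by FACS into six bins by GFP to DsRed ratio, PSI derived from sequencing read proportions per bin multiplied by bin number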
Please go through the items and note down their protein stability index.
One number for each entry.

Some entries whose results are on file:
1. NDDSAEYQHFLQDCVDGLFKEVKE: 3.29
2. NDWSADYQHFLQDCVDGLFKEVKE: 1.71

Quick batch: protein stability index for everything below.
1. NDDSADYQHFLQDCVDGLFMEVKE
2. NDDSAGYQHFLQDCVDGLFKEVKE
3. NDDSACYQHFLQDCVDGLFKEVKE
4. NDDSADYQHFVQDCVDGLFKEVKE
5. NDDSADYQHFLQDCVDGLFKEVKP
6. NDDSADYQHFLQDCVDGGFKEVKE
7. NDDSADYQHFHQDCVDGLFKEVKE
8. NDSSADYQHFLQDCVDGLFKEVKE

A)
[2.68, 3.62, 2.8, 4.18, 4.54, 5.6, 5.08, 2.4]

Quick batch: protein stability index for everything below.
1. NDDSADYQHFLQDLVDGLFKEVKE
2. NDDSADYQHFLQDCVDGLDKEVKE
3. NDDSADYQHFGQDCVDGLFKEVKE
4. NDDSADYQHFLQDCVDGLFKNVKE

A)
[1.97, 5.61, 5.35, 3.81]

Quick batch: protein stability index for everything below.
1. NDDSADYQHFLQDCVDGLFCEVKE
2. NDDSADYQHFLQDCVDGMFKEVKE
3. NDDSADYQHFLQDCCDGLFKEVKE
4. NDVSADYQHFLQDCVDGLFKEVKE

A)
3.38
4.47
4.79
3.69

Quick batch: protein stability index for everything below.
1. NDDSADYQHMLQDCVDGLFKEVKE
2. NDDSADYQHFPQDCVDGLFKEVKE
3. NDDSADYQHFLQDCVDGLFKEVTE
4. NDDSADYQHFLQDCVDGLFKQVKE

A)
1. 2.34
2. 4.51
3. 1.65
4. 2.74

Just for reference, the supplement of paper PMC10567573 is where these values come from.
